Target: T1, rat α-CGRP (Rattus norvegicus, UniProt P01256)
T1 construct: rat α (1-37); purchased GenScript Corporation or Global Peptide Services
T1 sequence (P01256 83-119 limits assumed): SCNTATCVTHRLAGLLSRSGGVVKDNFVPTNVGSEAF
Assay: Biacore SPR affinity of Fab fragments to N-biotinylated rat α-CGRP on SA chip
Format: binding
Conditions: 37° C., screening mode except underlined values
The following molecules are shown together with reported α-rat koff values.
ENDPOINT LABEL: α-rat koff (s⁻¹)

| MOLECULE | ENDPOINT LABEL | UNIT STRING | ENDPOINT RESULT |
| --- | --- | --- | --- |
| M77: G1 variant; L1 R28N T30S; L2 G50A L56T; H2 E54K A57D; HC-FW3 L99T A100V (antibody, V domains shown) VH: EVQLVESGGGLVQPGGSLRLSCAASGFTFSNYWISWVRQAPGKGLEWVAEIRSKSDDSATHYAEAVKGRFTISRDNAKNSLYLQMNSLRAEDTAVYYCTVYFDYGLAIQNYWGQGTLVTVSS VL: EIVLTQSPATLSLSPGERATLSCKASKNVSTYVSWYQQKPGQAPRLLIYAASNRYTGIPARFSGSGSGTDFTLTISSLEPEDFAVYYCSQSYNYPYTFGQGTKLEIK | α-rat koff | s⁻¹ | 0.0143 |
| M66: G1 variant; L1 R28N T30G; L2 L561; H2 E54K A57E; HC-FW3 L99T A100V (antibody, V domains shown) VH: EVQLVESGGGLVQPGGSLRLSCAASGFTFSNYWISWVRQAPGKGLEWVAEIRSKSDESATHYAEAVKGRFTISRDNAKNSLYLQMNSLRAEDTAVYYCTVYFDYGLAIQNYWGQGTLVTVSS VL: EIVLTQSPATLSLSPGERATLSCKASKNVGTYVSWYQQKPGQAPRLLIYGASNRYIGIPARFSGSGSGTDFTLTISSLEPEDFAVYYCSQSYNYPYTFGQGTKLEIK | α-rat koff | s⁻¹ | 0.00511 |
| M35: G1 variant; L1 R28N T30G; H2 E54K A57S; HC-FW3 L99T A100V (antibody, V domains shown) VH: EVQLVESGGGLVQPGGSLRLSCAASGFTFSNYWISWVRQAPGKGLEWVAEIRSKSDSSATHYAEAVKGRFTISRDNAKNSLYLQMNSLRAEDTAVYYCTVYFDYGLAIQNYWGQGTLVTVSS VL: EIVLTQSPATLSLSPGERATLSCKASKNVGTYVSWYQQKPGQAPRLLIYGASNRYLGIPARFSGSGSGTDFTLTISSLEPEDFAVYYCSQSYNYPYTFGQGTKLEIK | α-rat koff | s⁻¹ | 0.00399 |
| M46: G1 variant; L1 R28N; L2 G50A L56T; H2 E54K A57N S58E H61F; HC-FW3 L99T A100V (antibody, V domains shown) VH: EVQLVESGGGLVQPGGSLRLSCAASGFTFSNYWISWVRQAPGKGLEWVAEIRSKSDNEATFYAEAVKGRFTISRDNAKNSLYLQMNSLRAEDTAVYYCTVYFDYGLAIQNYWGQGTLVTVSS VL: EIVLTQSPATLSLSPGERATLSCKASKNVTTYVSWYQQKPGQAPRLLIYAASNRYTGIPARFSGSGSGTDFTLTISSLEPEDFAVYYCSQSYNYPYTFGQGTKLEIK | α-rat koff | s⁻¹ | 0.00294 |
